Where these numbers come from: PubChem BioAssay (NCI)

Test system: UACC-257 melanoma
EXPERIMENTAL DETAILS: NCI tumour cell line growth inhibition, 48 h
PROPERTY NAME: TGI

MOLECULE: COc1ccc(CNCCN2C(=O)c3ccc4c5c(ccc(c35)C2=O)C(=O)N(CCNCc2ccc(OC)c(OC)c2OC)C4=O)c(OC)c1OC
STUDY TARGET: UACC-257 melanoma
PROPERTY NAME: TGI
READOUT VALUE: 0.303 µM

MOLECULE: CCN(CC(O)COc1ccc2c(c1)[n+]([O-])nc(N)[n+]2[O-])C(C)=O (stereo not drawn)
STUDY TARGET: UACC-257 melanoma
PROPERTY NAME: TGI
READOUT VALUE: > 100 µM

MOLECULE: O=C(O)C(=Cc1ccc(-c2ccc([N+](=O)[O-])cc2)o1)C(=O)O
STUDY TARGET: UACC-257 melanoma
PROPERTY NAME: TGI
READOUT VALUE: > 100 µM

MOLECULE: Nc1cc2c3ccccc3ccc2c2ccccc12
STUDY TARGET: UACC-257 melanoma
PROPERTY NAME: TGI
READOUT VALUE: > 100 µM

MOLECULE: Cn1cc(-c2nc(-c3c[nH]c4ccccc34)cs2)c2cccnc21
STUDY TARGET: UACC-257 melanoma
PROPERTY NAME: TGI
READOUT VALUE: > 100 µM

MOLECULE: O=C(NC12CC3CC(CC(C3)C1)C2)n1cnc2c(Cl)ncnc21
STUDY TARGET: UACC-257 melanoma
PROPERTY NAME: TGI
READOUT VALUE: > 100 µM

MOLECULE: CN1CN(c2ccccc2)C2(CCN(C(=O)OC(C)(C)C)CC2)C1=O
STUDY TARGET: UACC-257 melanoma
PROPERTY NAME: TGI
READOUT VALUE: > 100 µM

MOLECULE: C#CCN1C(=O)CN2C(Cl)(Cl)C2(c2ccccc2)c2cc(Cl)ccc21 (stereo not drawn)
STUDY TARGET: UACC-257 melanoma
PROPERTY NAME: TGI
READOUT VALUE: > 100 µM

MOLECULE: CCc1cc2c(cc1O)CC[C@@H]1[C@@H]2CC[C@]2(C)[C@@H](O)CC[C@@H]12
STUDY TARGET: UACC-257 melanoma
PROPERTY NAME: TGI
READOUT VALUE: 20 µM

MOLECULE: COc1ccc(C2CC(=O)Nc3c2c(C)nn3-c2nc3ccccc3[nH]2)cc1OC (stereo not drawn)
STUDY TARGET: UACC-257 melanoma
PROPERTY NAME: TGI
READOUT VALUE: 55.4 µM

MOLECULE: C=c1c2ccccc2oc2nc3[nH]c(N)c(C#N)c(N)c3c(=N)c12
STUDY TARGET: UACC-257 melanoma
PROPERTY NAME: TGI
READOUT VALUE: > 100 µM

MOLECULE: Cc1ccccc1C1SCc2nc3ccccc3n21 (stereo not drawn)
STUDY TARGET: UACC-257 melanoma
PROPERTY NAME: TGI
READOUT VALUE: > 100 µM

MOLECULE: O=C(NNC(=O)/C(=C/c1cccc([N+](=O)[O-])c1)NC(=O)c1ccccc1)Nc1ccc(Cl)cc1
STUDY TARGET: UACC-257 melanoma
PROPERTY NAME: TGI
READOUT VALUE: 34.4 µM
